Biological target: MCT1 (Rattus norvegicus, UniProt P53987)
Construct: using an L-[^14C]-lactate study on the MCT1 expressing RBE4 cell line; endogenous in cells; host or cells: RBE4 (rat brain endothelial 4) cells, a gift from F. Roux
Sequence (P53987 1-494): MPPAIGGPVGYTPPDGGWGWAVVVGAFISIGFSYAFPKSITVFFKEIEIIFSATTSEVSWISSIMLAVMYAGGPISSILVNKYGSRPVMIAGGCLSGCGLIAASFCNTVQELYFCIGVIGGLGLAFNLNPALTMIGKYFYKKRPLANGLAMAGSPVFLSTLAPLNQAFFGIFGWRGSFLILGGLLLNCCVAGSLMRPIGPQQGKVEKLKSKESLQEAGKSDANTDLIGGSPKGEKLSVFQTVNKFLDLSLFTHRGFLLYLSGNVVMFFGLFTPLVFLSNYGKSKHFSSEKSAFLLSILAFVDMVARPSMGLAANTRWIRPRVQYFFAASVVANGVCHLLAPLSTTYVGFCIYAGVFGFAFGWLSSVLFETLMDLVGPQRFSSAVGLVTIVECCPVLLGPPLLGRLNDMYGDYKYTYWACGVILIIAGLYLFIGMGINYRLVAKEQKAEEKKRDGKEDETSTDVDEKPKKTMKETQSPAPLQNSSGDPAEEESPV
Assay: MCT1 inhibition assay via L-[14C]-lactate uptake in RBE4 cells
Assay type: cell-based
pIC50: −log10 of the molar value.
measured_attribute: pIC50

Query: Input N#CC(=Cc1ccc(O)cc1)C(=O)O [CHC 1, α-cyano-4-hydroxycinnamic acid, reference compound] , output reported pIC50.
Result: < 3.82

----------
Target: MCT1 (Rattus norvegicus, UniProt P53987)
Construct: using an L-[^14C]-lactate study on the MCT1 expressing RBE4 cell line; endogenous in cells; host or cells: RBE4 (rat brain endothelial 4) cells, a gift from F. Roux
Sequence (P53987 1-494): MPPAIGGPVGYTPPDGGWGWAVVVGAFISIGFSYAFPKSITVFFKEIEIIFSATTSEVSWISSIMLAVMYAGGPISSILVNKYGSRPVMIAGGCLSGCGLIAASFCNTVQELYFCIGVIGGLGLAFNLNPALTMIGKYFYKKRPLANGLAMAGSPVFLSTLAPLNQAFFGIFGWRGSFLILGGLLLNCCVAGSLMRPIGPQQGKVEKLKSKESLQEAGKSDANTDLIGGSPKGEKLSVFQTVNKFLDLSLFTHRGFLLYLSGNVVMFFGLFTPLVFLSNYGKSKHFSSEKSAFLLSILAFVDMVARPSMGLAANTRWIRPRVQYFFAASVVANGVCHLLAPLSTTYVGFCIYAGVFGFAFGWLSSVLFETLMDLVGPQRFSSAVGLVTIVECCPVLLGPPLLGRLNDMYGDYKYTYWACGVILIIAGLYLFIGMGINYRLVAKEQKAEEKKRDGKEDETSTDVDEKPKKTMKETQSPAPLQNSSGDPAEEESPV
Assay: MCT1 inhibition assay via L-[14C]-lactate uptake in RBE4 cells
Format: cell-based
Details: L-[14C]-lactate uptake, MCT1 expressing RBE4 cell line; average ± SEM of three separate experiments; read-out: MCT1 IC50
measured_attribute: IC50 (µM)
The response must be a number in µM with no trailing unit.

Query: Input CC(C)(C)[Si](OCCOc1ccc(/C=C(\C#N)C(=O)O)cc1)(c1ccccc1)c1ccccc1 [2b] , output reported IC50.
Result: 0.097

Query: Input CC(C)(C)[Si](Oc1ccc(/C=C(\C#N)C(=O)O)cc1)(c1ccccc1)c1ccccc1 [2a] , output reported IC50.
Result: 0.408

Every entry's value here was drawn from paper PMC6892925.
